This section presents binders with their documented interaction score values.
Molecular target: T1, 4H3298-bA
T1 chain: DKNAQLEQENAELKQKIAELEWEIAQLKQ
Assay: two-hybrid library CCNG1;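 also: natural log of median RNA to DNA barcode read ratio; higher means stronger binding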
Endpoint: interaction score

binder="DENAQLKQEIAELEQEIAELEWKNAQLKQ [4H1544-bA]" recorded_measurement=0.792
binder="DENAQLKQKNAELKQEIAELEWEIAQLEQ [4H1985-bA]" recorded_measurement=-0.906
binder="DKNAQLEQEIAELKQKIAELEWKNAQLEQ [4H3175-bA]" recorded_measurement=-0.491
binder="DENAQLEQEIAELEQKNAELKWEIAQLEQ [4H1081-bA]" recorded_measurement=-0.916
binder="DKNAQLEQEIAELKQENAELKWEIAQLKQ [4H3162-bA]" recorded_measurement=-0.43

Every entry's value here was drawn from paper PMC10397247.
